assay: Pharmacokinetics of ERL and GEF in Wistar rats after four weeks consumption of water or flavoured water (plasma, UPLC-MS/MS, non-compartmental analysis); assay type: in vivo; conditions: male, Wistar, rat, plasma, po, 20 mg/kg, rats, 20 mg/kg oral; four weeks pineapple FW; n = 5, mean (SD)
parameter measured: Cmax (ng/mL)

I: C#Cc1cccc(Nc2ncnc3cc(OCCOC)c(OCCOC)cc23)c1 [ERL, Erlotinib]
II: COc1cc2ncnc(Nc3ccc(F)c(Cl)c3)c2cc1OCCCN1CCOCC1 [GEF, Gefitinib]
Hi, I'm comparing I with II and wondering which one has the bigger number for Cmax. Any idea? Your choice should be expressed through its label. II
(II: 445 ng/mL, I: 120 ng/mL)

This collection of values is drawn from paper PMC7518156.
